Catalogue of AC50 readings, one per entry.
Tested on: SUM149
Test: Cytotoxicity assay (Version 2, automated, AC50) with/without neutrophil elastase
Assay type: cell-based
Conditions: SUM149, without (−) neutrophil elastase, Version 2, activity concentration at −50%

Compound | Study Target | AC50
CCCNC(=O)Nc1cccc(S(=O)(=O)Nc2cccc([C@@H](CC(=O)[O-])NC(=O)Nc3ccc(NC(=O)NCCOCCOCCOCCC(=O)N[C@@H](CC(=O)[O-])C(=O)N4CCC[C@H]4C(=O)N[C@H](C(=O)N=[S@@](C)(=O)Cc4cc5cc(c4)OCCCCOc4cc(F)ccc4-c4nc(ncc4F)N5)C(C)C)cc3)c2)c1.[Na+].[Na+] | SUM149 | 100 to 1000 nM
CCCNC(=O)Nc1cccc(S(=O)(=O)Nc2cccc([C@@H](CC(=O)O)NC(=O)Nc3ccc(NC(=O)NCCOCCOCCOCCC(=O)N[C@@H](CC(=O)O)C(=O)N4CCC[C@H]4C(=O)N[C@@H](C(=O)N=[S@@](C)(=O)Cc4cc5cc(c4)O[C@@H](C)CCOc4cc(F)ccc4-c4nc(ncc4F)N5)C(C)C)cc3)c2)c1 (relative stereo) | SUM149 | 100 to 1000 nM

* * *

AC50 reference
System: HT29
Assay: Cytotoxicity assay (Version 2, automated, AC50) with/without neutrophil elastase
Type: cell-based, human
Conditions: HT29, without (−) neutrophil elastase, Version 2, activity concentration at −50%
Observed Property: AC50

Compound | Assay Value
CCCNC(=O)Nc1cccc(S(=O)(=O)Nc2cccc([C@@H](CC(=O)O)NC(=O)Nc3ccc(NC(=O)NCCOCCOCCOCCC(=O)NCCCC[C@H](NC(=O)CCOCCOCCOCCNC(=O)Nc4ccc(NC(=O)N[C@H](CC(=O)O)c5cccc(NS(=O)(=O)c6cccc(NC(=O)NCCC)c6)c5)cc4)C(=O)NCCN(C)CCN(C)CCN(C)CC(=O)N[C@@H](CC(N)=O)C(=O)N4CCC[C@H]4C(=O)N[C@H](C(=O)N=[S@@](C)(=O)Cc4cc5cc(c4)O[C@@H](C)CCOc4cc(F)ccc4-c4nc(ncc4F)N5)C(C)C)cc3)c2)c1 (relative stereo) | 100 to 1000 nM
CCCNC(=O)Nc1cccc(S(=O)(=O)Nc2cccc([C@H](CC(=O)O)NC(=O)Nc3ccc(NC(=O)NCCOCCOCCOCCC(=O)NCCCC[C@H](NC(=O)CCOCCOCCOCCNC(=O)Nc4ccc(NC(=O)N[C@@H](CC(=O)O)c5cccc(NS(=O)(=O)c6cccc(NC(=O)NCCC)c6)c5)cc4)C(=O)NCCN(C)CCN(C)CCN(C)CC(=O)N[C@@H](CC(N)=O)C(=O)N4CCC[C@H]4C(=O)N[C@H](C(=O)N=[S@@](C)(=O)Cc4cc5cc(c4)O[C@@H](C)CCOc4cc(F)ccc4-c4nc(ncc4F)N5)C(C)C)cc3)c2)c1 (relative stereo) | 100 to 1000 nM

* * *

Tested on: 786-O
Experiment: Cytotoxicity in vitro (MTT) in presence/absence of elastase
Format: cell-based, human
Settings: with (+) 10 nM neutrophil elastase, 72 h
pIC50: −log10 of the molar value.
Observed Property: pIC50

Molecule | Assay Value
CCCNC(=O)Nc1cccc(S(=O)(=O)Nc2cccc([C@@H](CC(=O)O)NC(=O)Nc3ccc(NC(=O)NCCOCCOCCOCCC(=O)N[C@@H](CC(=O)O)C(=O)N4CCC[C@H]4C(=O)N[C@H](C(=O)N=S(C)(=O)Cc4cccc(Nc5ncnc(-c6ccc(F)cc6OC)n5)c4)C(C)C)cc3)c2)c1 (relative stereo) | 7.00 to 7.96
